- Assay Comment: In vitro cytotoxic activity was evaluated by microtubule assembly assay relative to taxol; ED50/ED50
- Type: functional
Could you mark each record rule met if its Ratio falls strictly under 0.7, and rule not met if it equals or exceeds it?

For orientation, consider the following solved cases.
Compound	Label Value
CC(=O)O[C@H]1C(=O)[C@@]2(C)C([C@H](OC(=O)C3CCCCC3)[C@]3(O)C[C@H](OC(=O)[C@H](O)C(NC(=O)C4CCCCC4)C4CCCCC4)C(C)=C1C3(C)C)[C@]1(OC(C)=O)CO[C@@H]1C[C@@H]2O (stereo partly specified)	rule met
CC(=O)O[C@@]12CO[C@@H]1C[C@H](O)[C@@]1(C)C(=O)[C@H](O)C3=C(C)[C@@H](OC(=O)[C@H](O)[C@@H](NC(=O)OC(C)(C)C)c4ccccc4)C[C@@](O)([C@@H](OC(=O)c4ccccc4)[C@H]21)C3(C)C.O.O.O	rule met
CC(=O)O[C@H]1C(=O)[C@@]2(C)C([C@H](OC(=O)c3ccccc3)[C@]3(O)C[C@H](OC(=O)[C@H](O)C(NC(=O)c4ccccc4)C4CCCCC4)C(C)=C1C3(C)C)[C@]1(OC(C)=O)CO[C@@H]1C[C@@H]2O (stereo partly specified)	rule met
CC(=O)O[C@H]1C(=O)[C@@]2(C)C([C@H](OC(=O)c3ccccc3)[C@]3(O)C[C@H](OC(=O)[C@H](O)C(NC(=O)OC(C)(C)C)c4ccccc4)C(C)=C1C3(C)C)[C@]1(OC(C)=O)CO[C@@H]1C[C@@H]2O (stereo partly specified)	rule met
CC(=O)O[C@H]1C(=O)[C@@]2(C)[C@H]([C@H](OC(=O)c3ccccc3)[C@]3(O)C[C@H](OC(=O)[C@H](O)[C@@H](NC(=O)c4ccccc4)c4ccccc4)C(C)=C1C3(C)C)[C@]1(OC(C)=O)CO[C@@H]1C[C@@H]2O	rule not met

-- ask Determine if CC(=O)O[C@H]1C(=O)[C@@]2(C)C([C@H](OC(=O)C3CCCCC3)[C@]3(O)C[C@H](OC(=O)[C@H](O)C(NC(=O)OC(C)(C)C)c4ccccc4)C(C)=C1C3(C)C)[C@]1(OC(C)=O)CO[C@@H]1C[C@@H]2O (stereo partly specified) shows Ratio strictly lower than 0.7.
-- reply rule met
